- PROTOCOL_NOTES: Cytotoxicity activity against human HepG2 cells assessed by CellTiter-Glo luminescent cell viability assay.
- Assay type: toxicity, cell-based
- Parameters: assay stage confirmatory assay, source tissue liver
- EXPERIMENTAL_CONDITIONS: HepG2 cells, read-out: IC50 relative
Where a name gives a salt, the structure may show the parent alone. Active and inactive are the calls of the source. How the calls were made is not given here.
PARAMETER_MEASURED: CC50

Below, 6 compounds whose answers are already recorded.
Query: Fill in: CC50 of `CN(C)c1cc(CNCc2cccc(OCc3ccccn3)c2)ccn1` is ___
Response: 15.3 µM (inactive)

Query: What value of measured CC50 is listed for OC(c1ccccc1)C(CN1CCCC1)c1ccccc1 (centres undefined) ?
Response: 8.8 µM (active)

Query: CC50 for `COc1ccccc1NC(=O)N1CCC(n2cnc3ccc(C)cc3c2=O)CC1` ?
Response: 3.6 µM (active)

Query: So what's the measured CC50 for this one? `Cc1cccc(CC(=O)N2CCc3c2ccc(-c2cn(C)c4ncnc(N)c24)c3F)n1`
Response: 6.7 µM (active)

Query: So what's the measured CC50 for this one? `CC(C)CCn1c(SCC(=O)NCCN(C(C)C)C(C)C)nc2ccccc2c1=O`
Response: 12.5 µM (active)

Query: Could you tell me which CC50 is on file for `COc1c(C)ncnc1NCc1cccc(C(F)(F)F)c1` ?
Response: 2.9 µM (active)

--- query ---
Query: Could you tell me which CC50 is on file for C[C@@H](NCCCc1cccc(C(F)(F)F)c1)c1cccc2ccccc12 [CINACALCET HYDROCHLORIDE] ?
Response: 5.1 µM (active)

* * *

Items are presented alongside their recorded CC50.
- PROTOCOL_NOTES: Cytotoxicity activity against human HepG2 cells assessed by CellTiter-Glo luminescent cell viability assay.
- Type: toxicity, cell-based
- Set-up: assay stage confirmatory assay, source tissue liver
- EXPERIMENTAL_CONDITIONS: HepG2 cells, read-out: IC50 relative
The source made the active and inactive calls. No rule for the calls is given here.

Query: State the recorded CC50 for this entry: `Cc1ccc(NC(=O)Nc2ccc3c(c2)N(S(C)(=O)=O)CC3)cc1C`
Response: 16.8 µM (inactive)

Query: Could you tell me which CC50 is on file for `CCOc1ccccc1C(=O)N1CCN(c2ccccc2OCC)CC1` ?
Response: 15.1 µM (inactive)

Here is another molecule to look at.
Query: CC50 for `c1coc(CNc2ncnc3ccccc23)c1` ?
Response: 9.5 µM (inactive)

* * *

- PROTOCOL_NOTES: Cytotoxicity activity against human HepG2 cells assessed by CellTiter-Glo luminescent cell viability assay.
- Assay type: toxicity, cell-based
- Design: assay stage confirmatory assay, source tissue liver
- EXPERIMENTAL_CONDITIONS: HepG2 cells, read-out: IC50 relative
The source made the active and inactive calls. No rule for the calls is given here.
Please reply with one of these outcomes: 1 = active, -1 = inactive

Query: Please share the test call associated with `O=C(Oc1c(Cl)cc(Cl)c2cccnc12)c1ccco1` .
Response: 1

Query: Dear all, I need the recorded test outcome for `O=C(c1cccc2cnccc12)N1CCc2c(nc(-c3ccccc3)[nH]c2=O)C1` , thank you.
Response: 1

Query: Per the records of this test, what outcome belongs to `CC(C)c1cc(N2CCN(c3ccc(C#N)cc3)CC2)ncn1` ?
Response: 1

Query: Please state the recorded outcome for this molecule: Cc1ccc(S(=O)(=O)N[C@@H](Cc2ccccc2)C(=O)CCl)cc1 [TPCK]
Response: 1

Query: Lab log entry: `CCN1CCN(Cc2cc(=O)oc3cc(-c4ccccc4)c(O)cc23)CC1` — outcome as called in the assay?
Response: 1

***
Query: Could you kindly confirm the outcome this assay logged for `COCC(=O)Nc1ccc(Nc2nc(C)cc(N3CCCC3)n2)cc1` ?
Response: 1

Query: For `Cc1cccc(OC[C@@H](O)CN2CCC(C(=O)N3CCc4ccccc43)CC2)c1` , which call appears in the assay record?
Response: 1
